Tested on: S. aureus ATCC 106414 (VISA)
Assay: MIC, microdilution method (9.1)
Assay type: cell-based, Staphylococcus aureus
Conditions: Staphylococcus aureus, read after 18 h, read-out: MIC
Protocol: The microdilution method recommended by the Clinical and Laboratory Standard Institute [M07-A8, Vol. 29, No. 2] was used. The activity of indolic compounds was tested against 29 bacterial strains belonging to 17 different species and 12 different genera (Staphylococcus, Streptococcus, Enterococcus, Listeria, Bacillus, Haemophilus, Escherichia, Klebsiella, Enterobacter, Serratia, Pseudomonas, and Acinetobacter). […]
Parameter: MIC (µg/mL)
# unit: µg/mL | format: bare number

Ask | Kindly indicate its recorded MIC. Item: O=C(NC(C(=O)NCCO)c1c[nH]c2ccc(Br)cc12)c1c[nH]c2ccc(Br)cc12 (stereo not shown)
Reply | 32

Ask | Note down MIC recorded for O=C(NC(C(=O)NCCCCO)c1c[nH]c2ccc(Br)cc12)c1c[nH]c2ccc(Br)cc12 (stereo not shown)
Reply | 32

Ask | State its MIC for this molecule: CC(C)(C)OC(=O)NCC(NC(=O)c1c[nH]c2ccc(Br)cc12)c1c[nH]c2ccc(Br)cc12 (stereo not shown)
Reply | 2

Ask | Return reported MIC. Input molecule: CC(C)(C)OC(=O)NCC(NC(=O)c1c[nH]c2ccccc12)c1c[nH]c2cc(Br)ccc12 (stereo not shown)
Reply | 8
